Biological target: Abf1 (UniProt P14164)
Sequence: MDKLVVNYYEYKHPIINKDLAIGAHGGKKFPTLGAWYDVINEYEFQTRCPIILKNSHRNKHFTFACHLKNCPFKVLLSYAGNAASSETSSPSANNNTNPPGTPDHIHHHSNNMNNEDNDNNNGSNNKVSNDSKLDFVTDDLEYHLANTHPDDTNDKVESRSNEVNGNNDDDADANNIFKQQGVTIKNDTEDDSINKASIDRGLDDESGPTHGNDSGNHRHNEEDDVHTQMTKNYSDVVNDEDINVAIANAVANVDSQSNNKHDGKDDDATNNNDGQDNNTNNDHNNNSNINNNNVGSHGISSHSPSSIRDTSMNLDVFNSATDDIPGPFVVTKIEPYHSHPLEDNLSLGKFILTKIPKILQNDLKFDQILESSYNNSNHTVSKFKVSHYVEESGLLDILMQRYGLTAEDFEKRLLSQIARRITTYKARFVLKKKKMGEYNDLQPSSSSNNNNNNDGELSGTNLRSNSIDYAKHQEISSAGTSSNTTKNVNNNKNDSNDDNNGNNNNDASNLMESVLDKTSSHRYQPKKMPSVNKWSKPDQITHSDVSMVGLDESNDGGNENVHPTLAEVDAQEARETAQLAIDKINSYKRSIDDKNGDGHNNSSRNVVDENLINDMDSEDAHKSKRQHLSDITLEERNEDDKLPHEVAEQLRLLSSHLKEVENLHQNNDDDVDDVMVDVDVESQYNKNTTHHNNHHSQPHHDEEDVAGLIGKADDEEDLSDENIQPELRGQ
Assay: PBM E-score (8-mer binding enrichment) (E-score (-0.5 to 0.5)); higher = stronger / more preferred TF binding
Settings: protein concentration: 200 nM; construct: GST-full length
Whole data set: some 33,000 sequences, median “E-score (-0.5 to 0.5)” near -0.015, cut for the highest 2% near 0.3. Shown is part of a subset that was picked to be rich in the highest values.
# PBM E-score >= 0.1 gives rule met, anything below gives rule not met

Query block: Textbook exercise: given the entry `AGGGTAAT` , state whether its PBM E-score is greater than or equal to 0.1.
Result block: rule not met

Query block: Textbook exercise: given the entry `AAACCGAC` , state whether its PBM E-score is greater than or equal to 0.1.
Result block: rule not met

Query block: Textbook exercise: given the entry `ATGTAGAC` , state whether its PBM E-score is greater than or equal to 0.1.
Result block: rule not met

Query block: Textbook exercise: given the entry `CCGAACAA` , state whether its PBM E-score is greater than or equal to 0.1.
Result block: rule not met

Query block: Textbook exercise: given the entry `AAGAACAT` , state whether its PBM E-score is greater than or equal to 0.1.
Result block: rule met

Query block: Textbook exercise: given the entry `CTCGACAA` , state whether its PBM E-score is greater than or equal to 0.1.
Result block: rule not met

Query block: Textbook exercise: given the entry `CTATCATC` , state whether its PBM E-score is greater than or equal to 0.1.
Result block: rule met

Query block: Textbook exercise: given the entry `ACGAACAA` , state whether its PBM E-score is greater than or equal to 0.1.
Result block: rule met

Query block: Textbook exercise: given the entry `ACCTTTTG` , state whether its PBM E-score is greater than or equal to 0.1.
Result block: rule not met

Query block: Textbook exercise: given the entry `GCGAACAA` , state whether its PBM E-score is greater than or equal to 0.1.
Result block: rule not met

Query block: Textbook exercise: given the entry `AGTGGTGA` , state whether its PBM E-score is greater than or equal to 0.1.
Result block: rule met

Query block: Textbook exercise: given the entry `GGAGAGCA` , state whether its PBM E-score is greater than or equal to 0.1.
Result block: rule not met

Query block: Textbook exercise: given the entry `ATATCATC` , state whether its PBM E-score is greater than or equal to 0.1.
Result block: rule met

Query block: Textbook exercise: given the entry `GGACCGCA` , state whether its PBM E-score is greater than or equal to 0.1.
Result block: rule not met

Query block: Textbook exercise: given the entry `GCGAATGA` , state whether its PBM E-score is greater than or equal to 0.1.
Result block: rule met

Query block: Textbook exercise: given the entry `ACGAACGA` , state whether its PBM E-score is greater than or equal to 0.1.
Result block: rule met

Query block: Textbook exercise: given the entry `AATTGAAA` , state whether its PBM E-score is greater than or equal to 0.1.
Result block: rule met

Query block: Textbook exercise: given the entry `ACATTGAA` , state whether its PBM E-score is greater than or equal to 0.1.
Result block: rule not met

Query block: Textbook exercise: given the entry `AAATCATC` , state whether its PBM E-score is greater than or equal to 0.1.
Result block: rule met

Query block: Textbook exercise: given the entry `CTAAGCGA` , state whether its PBM E-score is greater than or equal to 0.1.
Result block: rule not met

Query block: Textbook exercise: given the entry `ACTGCACG` , state whether its PBM E-score is greater than or equal to 0.1.
Result block: rule not met

Query block: Textbook exercise: given the entry `GGAGATAA` , state whether its PBM E-score is greater than or equal to 0.1.
Result block: rule not met
